Test system: R275C
Experiment: modulators of BK channel variants, profiling panel, selectivity assay, cell-based, U2OS BacMam, thallium flux, beta subunits (AID 1259406);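 also: initial slope of Thallos dye fluorescence rise after thallium is added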
Details: at 30 µM
Field: label. Allowed values: True (log fold change Tl+ flux < 0.002) or False (log fold change Tl+ flux >= 0.002).

Here's what some known entries look like.
# COMPOUND, GROUP
measured = [
    ("C[n+]1ccccc1C=NO", "True"),
    ("CSc1nc(C)nc(Sc2cccc(C(F)(F)F)c2)c1C#N", "True"),
    ("COCC1=C(C(=O)OC(C)OC(=O)OC(C)C)N2C(=O)[C@@H](NC(=O)C(=NOC)c3csc(N)n3)[C@H]2SC1 (stereo partly specified)", "False"),
    ("O=S(=O)(CCN1CCN(Cc2ccccc2)CC1)c1ccc(F)cc1", "False"),
    ("CS(=O)(=O)NNc1c(Cl)cc(Cl)cc1Cl", "False"),
]

Attention now turns to another entry.
Input line: hey, is log fold change Tl+ flux for O=C(Nc1ccc(F)cc1)N1CCN(Cc2ccccc2)CC1 lower than 0.002 or not?
Output line: False
